Item-by-item account of interaction score
Molecular target: T1, P2-AA-12HAA-H
T1 chain: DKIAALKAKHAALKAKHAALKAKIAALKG
Experiment: two-hybrid library CCmax;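 also: natural log of median RNA to DNA barcode read ratio; higher means stronger binding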
Details: mean of both orientations

Give its interaction score value. Item: DEIAALEAERAALEAERAALEAEIAALEG [P1-AA-12HAA-R]
0.326

Lookup DEIAALEAEKAALEAEKAALEAEIAALEG [P1-AA-12HAA-K]
0.974

Lookup DEIAALEAEYAALEAEYAALEAEIAALEG [P1-AA-12HAA-Y]
1.67

Lookup DEIAALEAENAALEAENAALEAEIAALEG [P1-AA]
1.67

Lookup DEIAALEAETAALEAETAALEAEIAALEG [P1-AA-12HAA-T]
1.5

Continuing:
Give its interaction score value. Item: DEIAALEAEVAALEAEVAALEAEIAALEG [P1-AA-12HAA-V]
1.25

Lookup DEIAALEAELAALEAELAALEAEIAALEG [P1-AA-12HAA-L]
1.84

Lookup DEIAALEAESAALEAESAALEAEIAALEG [P1-AA-12HAA-S]
1.58

Lookup DEIAALEAEEAALEAEEAALEAEIAALEG [P1-AA-12HAA-E]
1.59

Lookup DEIAALEAEAAALEAEAAALEAEIAALEG [P1-AA-12HAA-A]
2.14

Lookup DEIAALEAEHAALEAEHAALEAEIAALEG [P1-AA-12HAA-H]
-0.35

Lookup DEIAALEAEDAALEAEDAALEAEIAALEG [P1-AA-12HAA-D]
0.205
